Assay: Inhibition of alpha glucosidase (unknown origin) using p-nitrophenyl alpha-D-glucoside as substrate preincubated for 60 mins followed by substrate addition measured after 30 mins by spectrophotometric analysis
Parameters: species or system Homo sapiens
measured-attribute: pIC50
To interpret pIC50, take it as minus log10 of a concentration measured in moles per litre.

QUERY: Dear colleague, I am looking for the recorded pIC50 of the following compound: COCC1=C(C)[C@H]2C3=CC[C@@H]4[C@@]5(C)CC[C@H](O)C(C)(C)[C@@H]5C(=O)C[C@@]4(C)[C@]3(C)CC[C@@]2(C(=O)O)CC1
RESULT: 4.31

QUERY: Same again, this time with C[C@H]1[C@H](C)CC[C@]2(C(=O)O)CC[C@]3(C)C(=CC[C@@H]4[C@@]5(C)CC[C@H](O)C(C)(C)[C@@H]5CC[C@]43C)[C@H]12
RESULT: 4.80

====

Assay: Inhibition of alpha glucosidase (unknown origin) using p-nitrophenyl-a-D-glucopyranoside as substrate incubated for 20 mins by UV based microplate reading method
Parameters: species or system Homo sapiens
Answer each item with its documented pIC50.
Scale: pIC50 equals -log10([C]), with [C] in mol/L.

QUERY: Requested read-out: pIC50. Entry: O=C1CC[C@H](Cc2ccc(O)c(O)c2)O1
RESULT: 4.57

QUERY: How about Cc1cc2c(cc1O)OC1(CC1)C(O)C2 (stereo not drawn) ?
RESULT: 4.81

QUERY: And the next one, Oc1cc(O)c2c(c1)O[C@H](c1ccc(O)c(O)c1)[C@@H](O)[C@@H]2c1c(O)cc(O)c2c1O[C@H](c1ccc(O)c(O)c1)[C@@H](O)C2 ?
RESULT: 4.76

====

Target: UniProt P22303
Sequence (P22303 whole entry): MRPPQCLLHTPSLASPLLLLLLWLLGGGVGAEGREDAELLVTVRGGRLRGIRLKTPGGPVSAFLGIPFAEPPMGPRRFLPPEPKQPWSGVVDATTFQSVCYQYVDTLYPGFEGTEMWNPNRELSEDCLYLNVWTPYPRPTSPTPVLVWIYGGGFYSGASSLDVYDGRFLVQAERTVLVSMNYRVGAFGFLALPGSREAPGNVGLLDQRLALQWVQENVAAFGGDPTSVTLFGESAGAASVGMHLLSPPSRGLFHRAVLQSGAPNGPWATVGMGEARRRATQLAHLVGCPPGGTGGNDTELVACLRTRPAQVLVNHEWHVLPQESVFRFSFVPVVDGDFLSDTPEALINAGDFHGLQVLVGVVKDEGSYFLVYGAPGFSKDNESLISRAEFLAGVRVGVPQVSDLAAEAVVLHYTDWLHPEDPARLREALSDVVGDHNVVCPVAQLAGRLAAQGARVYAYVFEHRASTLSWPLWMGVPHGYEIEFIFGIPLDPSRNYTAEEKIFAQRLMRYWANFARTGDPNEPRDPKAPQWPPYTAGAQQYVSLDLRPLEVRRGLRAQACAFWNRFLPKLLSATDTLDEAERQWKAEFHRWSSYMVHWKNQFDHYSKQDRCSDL
Test: Inhibition of AChE (unknown origin) incubated for 20 mins by Ellman's method
measured-attribute: IC50 (µM)
Reply with just the number (in µM).

QUERY: Dear colleague, I am looking for the recorded IC50 of the following compound: C=C[C@H]1COC(=O)C2=CN3CCc4c([nH]c5cccc(O[C@@H]6O[C@H](CO)[C@@H](O)[C@H](O)[C@H]6O)c45)[C@@H]3C[C@H]21
RESULT: 21.1

====

System: PC-12
Assay: Neuroprotective activity against mNGF-differentiated rat PC-12 cells assessed as inhibition of caspase 9
Assay type: functional, cell-based
measured-attribute: IC50 (µM)
Please give a number only; it is taken to be in µM.

QUERY: What value of IC50 has been reported for the following compound? C=C[C@H]1[C@H](O[C@@H]2O[C@H](CO)[C@@H](O)[C@H](O)[C@H]2O)OC=C(C(=O)OC)[C@H]1C[C@@H]1N[C@H](C(=O)O)Cc2c1[nH]c1ccccc21
RESULT: 24.5
